# assayed system: Mitogen-activated protein kinase 14 (Homo sapiens, UniProt Q16539)
# Sequence (Q16539 whole entry): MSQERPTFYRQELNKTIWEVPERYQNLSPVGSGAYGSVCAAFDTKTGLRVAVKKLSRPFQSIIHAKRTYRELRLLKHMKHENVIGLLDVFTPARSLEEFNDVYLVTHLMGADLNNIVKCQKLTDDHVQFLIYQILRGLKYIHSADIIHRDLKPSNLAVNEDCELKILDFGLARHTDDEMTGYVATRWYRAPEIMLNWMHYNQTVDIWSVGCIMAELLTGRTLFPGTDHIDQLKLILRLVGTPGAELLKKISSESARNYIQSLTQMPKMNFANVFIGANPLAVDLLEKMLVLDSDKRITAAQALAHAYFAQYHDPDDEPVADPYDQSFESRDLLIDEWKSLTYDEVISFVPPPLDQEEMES
reported endpoint: IC50 (nM)
One number for each entry, in nM.

Task: Which IC50 value belongs to OCCC#Cc1nc(-c2ccc(F)cc2)c(-c2ccncc2)n1CCCc1ccccc1 ?
Result: 1000

* * *

# assayed system: Mitogen-activated protein kinase 1 (Toxoplasma gondii, UniProt Q5SC61)
# Sequence (Q5SC61 whole entry): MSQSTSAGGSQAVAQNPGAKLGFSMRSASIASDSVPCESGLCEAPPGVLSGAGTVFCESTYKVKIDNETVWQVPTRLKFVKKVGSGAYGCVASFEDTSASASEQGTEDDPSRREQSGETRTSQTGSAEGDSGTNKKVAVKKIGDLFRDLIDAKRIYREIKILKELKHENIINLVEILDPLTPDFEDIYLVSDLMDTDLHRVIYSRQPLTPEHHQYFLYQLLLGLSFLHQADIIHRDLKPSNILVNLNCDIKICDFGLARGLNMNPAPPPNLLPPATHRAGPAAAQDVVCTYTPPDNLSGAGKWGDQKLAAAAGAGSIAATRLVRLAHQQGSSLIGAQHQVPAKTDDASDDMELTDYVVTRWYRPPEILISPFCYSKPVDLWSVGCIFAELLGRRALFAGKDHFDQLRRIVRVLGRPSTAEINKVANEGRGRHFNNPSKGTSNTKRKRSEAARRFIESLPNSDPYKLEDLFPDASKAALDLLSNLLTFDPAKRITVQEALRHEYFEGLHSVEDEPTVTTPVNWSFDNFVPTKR
# procedure text: Inhibition of Toxoplasma gondii recombinant MAPK1 expressed in Escherichia coli
reported endpoint: IC50 (nM)
Answers are plain numbers, in nM.

Task: Recorded IC50 of OCCC#Cc1nc(-c2ccc(F)cc2)c(-c2ccncc2)n1CCCc1ccccc1 [RWJ-67657] , please.
Result: 200

* * *

What pIC50 was measured for each of the following?
# Test system: Toxoplasma gondii
# procedure text: microbe, parasite or virus in culture
# protocol conditions: RH
# Description: Antiprotozoal activity against 1 MOI Toxoplasma gondii RH tachyzoites infected in confluent HFF assessed as inhibition of [3H]uracil incorporation into tachyzoites treated 4 hrs after infection measured after overnight incubation post uracil addition by liquid scintillation counting
Give bare numbers, as −log10 of the molar value.

| compound | quantitative result |
| --- | --- |
| OCCC#Cc1nc(-c2ccc(F)cc2)c(-c2ccncc2)n1CCCc1ccccc1 [RWJ-67657] | 5.30 |

Task: Need pIC50 of C[S+]([O-])c1ccc(-c2nc(-c3ccc(F)cc3)c(-c3ccncc3)[nH]2)cc1 (configuration not stated) [SB-203580] , thanks.
Result: 5.07
